Tested on: OVCAR-4 ovarian
Experiment: NCI tumour cell line growth inhibition, 48 h
*1 amine or outer side, *2 acyl side, *3 side chain or, on linkers, in order; H or OH if unused. Where a SMILES comes first, the peptide text is derived from it. Bridges are numbered along the chain shown (N, C = ends). Roman numbers before positions name the chains, in order. [ ]: non-standard residue; d: D form. Actinocin(9to1) = Cc1c2oc3c(C)ccc(C(=O)[*:1])c3nc-2c(C(=O)[*:2])c(N)c1=O; NMeV = CN[CH](C(=O)O)C(C)C; Sar = CNCC(=O)O

{"compound": "Cc1c2oc3c(C)ccc(C(=O)NC4C(=O)NC(Cc5ccc(O)cc5)C(=O)N5CCCC5C(=O)N(C)CC(=O)N(C)C(C(C)C)C(=O)OC4C)c3nc-2c(C(=O)NC2C(=O)NC(Cc3ccc(O)cc3)C(=O)N3CCCC3C(=O)N(C)CC(=O)N(C)C(C(C)C)C(=O)OC2C)c(N)c1=O (configuration not stated) (I: TYP[Sar][NMeV] / II: TYP[Sar][NMeV]; ester I:1-I:C, II:1-II:C; linker I:N-II:N via Actinocin(9to1); configuration not given here)", "TGI": "> 42.1 µM"}
{"compound": "O=C1NC(=S)NC(=O)C1=Cc1cc2c(cc1[N+](=O)[O-])OCO2", "TGI": "> 100 µM"}
